assay: Cytotoxicity against human MT4 cells assessed as reduction in cell viability after 3 days by cytoTox-Glo reagent based assay
What CC50 at 72 h was measured for each of the following?
# value in µM; strip the unit string

The reported value for `CO[C@H]1O[C@]2(C=C(C)C(=O)O2)C[C@@H]1[C@H]1CC[C@@]2(C)[C@@H]3CC[C@H]4C(C)(C)C(=O)C=C[C@]45C[C@]35CC[C@]12C` in terms of CC50 at 72 h is 12.6

The reported value for `CC1=C[C@@]2(C[C@H]([C@H]3CC[C@@]4(C)[C@@H]5CC[C@H]6C(C)(C)C(=O)C=C[C@]67C[C@]57CC[C@]34C)CO2)OC1=O` in terms of CC50 at 72 h is 4.6

----------
assay: Antiproliferative activity against human KBVIN cells after 72 hrs by SRB assay; format: functional, cell-based
measure: pIC50
Quick note: pIC50 means taking -log10 of the concentration in moles per liter.

The reported value for `CC(=O)O[C@H]1C(=O)[C@@]2(C)[C@H]([C@H](OC(=O)c3ccccc3)[C@]3(O)C[C@H](OC(=O)[C@H](O)[C@@H](NC(=O)c4ccccc4)c4ccccc4)C(C)=C1C3(C)C)[C@]1(OC(C)=O)CO[C@@H]1C[C@@H]2O` in terms of pIC50 is 5.56

The reported value for `CC(C)=CC(=O)C[C@@H](C)[C@H]1CC[C@@]2(C)[C@@H]3CC[C@H]4C(C)(C)C(=O)C=C[C@]45C[C@]35CC[C@]12C` in terms of pIC50 is 5.08

The reported value for `CO[C@@H]1O[C@@]2(C=C(C)C(=O)O2)C[C@@H]1[C@H]1CC[C@@]2(C)[C@@H]3CC[C@H]4C(C)(C)C(=O)C=C[C@@]45C[C@@]35CC[C@]12C` in terms of pIC50 is 5.24

The reported value for `CC(=O)/C=C1/C=C([C@H]2CC[C@@]3(C)[C@@H]4CC[C@H]5C(C)(C)C(=O)C=C[C@@]56C[C@@]46CC[C@]23C)C(=O)N1` in terms of pIC50 is 5.16

The reported value for `CO[C@H]1O[C@]2(C=C(C)C(=O)O2)C[C@@H]1[C@H]1CC[C@@]2(C)[C@@H]3CC[C@H]4C(C)(C)C(=O)C=C[C@@]45C[C@@]35CC[C@]12C` in terms of pIC50 is 5.21

----------
assay: Selectivity index, ratio of CC50 for human MT4 cells to IC50 for HIV1 NL4-3 infected in human MT4 cells; assay type: toxicity, cell-based; details: read-out: Ratio CC50/IC50
measure: selectivity ratio

The reported value for `CO[C@@H]1O[C@@]2(C=C(C)C(=O)O2)C[C@@H]1[C@H]1CC[C@@]2(C)[C@@H]3CC[C@H]4C(C)(C)C(=O)C=C[C@@]45C[C@@]35CC[C@]12C` in terms of selectivity ratio is < 5

The reported value for `CC1=C[C@@]2(C[C@H]([C@H]3CC[C@@]4(C)[C@@H]5CC[C@H]6C(C)(C)C(=O)C=C[C@]67C[C@]57CC[C@]34C)CO2)OC1=O` in terms of selectivity ratio is 5.8

The reported value for `CO[C@H]1O[C@@]2(C=C(C)C(=O)O2)C[C@@H]1[C@H]1CC[C@@]2(C)[C@@H]3CC[C@H]4C(C)(C)C(=O)C=C[C@@]45C[C@@]35CC[C@]12C` in terms of selectivity ratio is < 5

The reported value for `CC(=O)/C=C1/C=C([C@H]2CC[C@@]3(C)[C@@H]4CC[C@H]5C(C)(C)C(=O)C=C[C@@]56C[C@@]46CC[C@]23C)C(=O)N1` in terms of selectivity ratio is < 5

The reported value for `CC(C)=CC(=O)C[C@@H](C)[C@H]1CC[C@@]2(C)[C@@H]3CC[C@H]4C(C)(C)C(=O)C=C[C@]45C[C@]35CC[C@]12C` in terms of selectivity ratio is < 5

The reported value for `CO[C@H]1O[C@]2(C=C(C)C(=O)O2)C[C@@H]1[C@H]1CC[C@@]2(C)[C@@H]3CC[C@H]4C(C)(C)C(=O)C=C[C@]45C[C@]35CC[C@]12C` in terms of selectivity ratio is 5.3
